Molecular target: Enoyl-[acyl-carrier-protein] reductase [NADH] (Mycobacterium tuberculosis)
Sequence (P9WGR1 whole entry): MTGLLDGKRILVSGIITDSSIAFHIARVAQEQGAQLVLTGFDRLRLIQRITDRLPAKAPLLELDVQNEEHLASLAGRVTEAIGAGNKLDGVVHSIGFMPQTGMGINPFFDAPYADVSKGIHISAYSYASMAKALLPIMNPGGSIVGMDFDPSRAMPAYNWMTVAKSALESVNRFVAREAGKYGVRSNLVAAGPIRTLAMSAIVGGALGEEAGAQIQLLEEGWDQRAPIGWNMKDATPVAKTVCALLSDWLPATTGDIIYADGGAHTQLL
Assay: Inhibition of his6-tagged Mycobacterium tuberculosis InhA using trans-2-dodecenoyl-coenzyme as substrate in presence of […]
Settings: read-out: IC50
MEASUREMENT LABEL: IC50 (nM)
API: value field is a number in nM; no unit string.

COc1ccc2cc(C(=O)NCc3cn(Cc4ccc(Oc5ccccc5)c(O)c4)nn3)c(=O)oc2c1 = 345
CCN(CC)c1ccc2cc(C(=O)NCc3cn(Cc4ccc(Oc5ccccc5)c(O)c4)nn3)c(=O)oc2c1 = 3550
O=[N+]([O-])c1ccc(NCc2cn(Cc3ccc(Oc4ccccc4)c(O)c3)nn2)c2nonc12 = 459
COc1cccc2cc(C(=O)NCc3cn(Cc4ccc(Oc5ccccc5)c(O)c4)nn3)c(=O)oc12 = 740
CCN(CC)c1ccc2c(OCc3cn(Cc4ccc(Oc5ccccc5)c(O)c4)nn3)cc(=O)oc2c1 = 54

Quick note, IC50 for O=c1cc(OCc2cn(Cc3ccc(Oc4ccccc4)c(O)c3)nn2)c2ccccc2o1 landed at 181

The compound listed as Cc1cc(=O)oc2cc(OCc3cnnn3Cc3ccc(Oc4ccccc4)c(O)c3)ccc12 has a reported IC50 of 510

In plain terms, O=C(NCc1cn(Cc2ccc(Oc3ccccc3)c(O)c2)nn1)c1cc2ccccc2oc1=O has a documented IC50 of 598

The recorded IC50 for [N-]=[N+]=NCc1ccc(Oc2ccccc2)c(O)c1 is 843

IC50 recorded for this compound, CN(C)S(=O)(=O)c1ccc(NCc2cn(Cc3ccc(Oc4ccccc4)c(O)c3)nn2)c2nonc12 , is 733

Measured IC50 of O=c1ccc2ccc(OCc3cnnn3Cc3ccc(Oc4ccccc4)c(O)c3)cc2o1 : 630

IC50 in this record for Cc1cc(=O)oc2cc(OCc3cn(Cc4ccc(Oc5ccccc5)c(O)c4)nn3)ccc12 : 205

Recorded IC50 (compound O=c1ccc2ccc(OCc3cn(Cc4ccc(Oc5ccccc5)c(O)c4)nn3)cc2o1 ): 163

Kindly note the recorded IC50 for O=C(NCc1cn(Cc2ccc(Oc3ccccc3)c(O)c2)nn1)c1cc2cc(O)ccc2oc1=O , which is 844
